Examples of molecules with documented GI50 follow.
Test system: EKVX
test: NCI tumour cell line growth inhibition, 48 h
Active and inactive are the calls of the source. Rule as the data show it: active = GI50 up to about 1.1 µM and inactive = higher.

molecule: CCCCCC(=O)n1[nH]c(=O)n(-c2ccc(OC)cc2)c1=O
GI50: > 100 µM (inactive)

molecule: CC(=O)Nc1ccc(-c2nc3ccccc3s2)cc1C
GI50: 25.1 µM (inactive)

molecule: Cc1cc(C)nc(NS(=O)(=O)c2ccc(Nc3c4ccccc4nc4c(C(=O)Nc5ccc(S(=O)(=O)N=C(N)N)cc5)ccc(Cl)c34)cc2)n1
GI50: 56.4 µM (inactive)

molecule: O=C(c1ccccc1)c1ccc2c(c1)nc1n2C(c2c(Cl)cccc2Cl)SC1 (stereo not given)
GI50: 50.4 µM (inactive)

molecule: CCN(CC)CCNc1ccc(/N=N/c2ccc(S(N)(=O)=O)cc2)c2ccccc12
GI50: 19 µM (inactive)

molecule: O=S(O)CCCCCSSCCCCSSCCCCCS(=O)O
GI50: > 100 µM (inactive)

molecule: Cc1cc(NS(=O)(=O)c2ccc(NC(=O)c3cccc4c(Nc5ccc(S(=O)(=O)Nc6cc(C)on6)cc5)c5ccccc5nc34)cc2)no1
GI50: > 100 µM (inactive)

molecule: CN1CCS(=O)(=O)NC(Cc2ccccc2)C(=O)N2CCCC2C1=O (stereo not given)
GI50: > 100 µM (inactive)

molecule: Cc1cc(OP2(=O)NCc3ncccc3O2)ccc1Cl (stereo not given)
GI50: > 100 µM (inactive)

molecule: CCCCCCCCCCCCCCCCP(=O)(O)OP(=O)(O)OCC1OC(n2ccc(N)nc2=O)C(O)C1O (stereo not given)
GI50: > 100 µM (inactive)

molecule: CC(=O)OC[C@@]1(C)[C@@H]2[C@@H]3[C@@]4(CO[C@]3(C)C(=O)[C@@]3(O)C[C@H](C)[C@H](OC(C)=O)[C@@H]3[C@H]4OC(C)=O)[C@H](OC(=O)c3ccccc3)C[C@@H]21
GI50: > 100 µM (inactive)

molecule: Clc1ccc(/C=N/Nc2nnc3c4ccccc4c4ncccc4c3n2)cc1
GI50: > 10 µM (inactive)

molecule: CC(=O)Oc1ccc2c(c1)[nH]c1c3ccc(OC(C)=O)cc3oc(=O)c21
GI50: 34.7 µM (inactive)

molecule: C(=N\Cc1ccccc1)/c1ccccc1-c1ccccc1/C=N/Cc1ccccc1
GI50: > 10 µM (inactive)

molecule: N#CC12C(=O)NC(=O)C1(C#N)C1C=CC2CC1 (stereo not given)
GI50: > 100 µM (inactive)

molecule: C#CCSc1nc(N)c2ncn(C3OC(CO)C(O)C3O)c2n1 (stereo not given)
GI50: > 100 µM (inactive)

molecule: CC(C)(C)N1C(=O)c2ccccc2C1(O)C(F)(F)F (stereo not given)
GI50: 64 µM (inactive)

molecule: CCCC(=O)NC(Nc1cc(C)ccn1)(C(=O)OCC)C(F)(F)F (stereo not given)
GI50: > 100 µM (inactive)

molecule: COc1cc(C(SCc2ccccc2)SCc2ccccc2)ccc1O
GI50: > 10 µM (inactive)

molecule: CN(CCO)c1nc(N)cc(=O)[nH]1
GI50: > 100 µM (inactive)
